- measurement_description: Model deblocking (hydrolysis) half-lives of esters with mononucleophile (A+B) or dinucleophile hydroxylamine (A+C), pH 10, 25° C.
- Assay type: physicochemical
- assay_context: rate enhancement due to hydroxylamine
- Procedure: Model studies were conducted on esters E-1 through E-5 to determine the possible rate enhancement which could be attained by using a dinucleophile rather than a mononucleophile to promote the removal from a phenolic moiety of a blocking group of this invention. Aqueous solutions A, B, and C, each containing 50% by volume of acetonitrile were prepared as follows (a separate solution A for each ester): Solution A: 2.5 × 10^-4 M ester (or 2.5 × 10^-5 M Solution B: 25% by volume carbonate buffer […]
experimental_endpoint: Ratio (A+B half-life to A+C half-life)

1. CC(=O)CC(C)(C)C(=O)Oc1ccccc1 [Compound E-5, reference compound]
2. CC(=O)CCC(=O)Oc1ccccc1 [Compound E-4, reference compound]
# input Given 1 and given 2 , which shows the smaller recorded Ratio (A+B half-life to A+C half-life)? Lab note: record the label of whichever item you select.
# output 2

* * *

- measurement_description: Model deblocking (hydrolysis) half-lives of esters with mononucleophile (A+B) or dinucleophile hydroxylamine (A+C), pH 10, 25° C.
- Type: physicochemical
- assay_context: rate enhancement due to hydroxylamine
experimental_endpoint: Ratio (A+B half-life to A+C half-life)

// known answers, use as guide
>  <compound>
CC(=O)C(C)(C)C(=O)Oc1ccc([N+](=O)[O-])cc1 [Compound E-1]

>  <Ratio (A+B half-life to A+C half-life)>
36 × 10^3

$$$$
>  <compound>
CC(=O)C(C)(C)C(=O)Oc1ccccc1 [Compound E-2]

>  <Ratio (A+B half-life to A+C half-life)>
93 × 10^3

$$$$

Ratio (A+B half-life to A+C half-life) reading for CC1(C(=O)Oc2ccccc2)CCCCC1=O (stereo not drawn) [Compound E-3] : 3.2 × 10^6
